Source listed as patent US20080015237A1.

experimentalTarget: human Kv1.5 channel (Homo sapiens)
methodNotes: Test A: Rb+ efflux assay
protocolConditions: CHO cells stably transfected with cDNA for human Kv1.5
readout: pIC50
pIC50 is a log-scale quantity: -log10 of the concentration expressed in molar.

{"molecule": "CC(C)(C)CCN1C(=O)c2ccccc2C1C(=O)NCc1cccc(OC(F)F)c1 (stereo not drawn)", "experimentalTarget": "human Kv1.5 channel (Homo sapiens)", "pIC50": 5.74}
{"molecule": "Cn1nc(CN2C(=O)c3ccccc3C2C(=O)NC(C)(C)C)cc1-c1ccccc1 (stereo not drawn)", "experimentalTarget": "human Kv1.5 channel (Homo sapiens)", "pIC50": 5.60}

Value of measured pIC50 for the entry O=C(NCc1ccccc1)C1c2cc(Br)ccc2C(=O)N1Cc1ccccc1 (stereo not drawn) : 6.08

---

experimentalTarget: human Kv1.5 channel (Homo sapiens)
methodNotes: Test A: Rb+ efflux assay
protocolConditions: CHO cells stably transfected with cDNA for human Kv1.5
readout: log10(IC50) (log10 of the value in nM)
Scale: log10; quantity: IC50; unit before log: nM

{"compound": "O=C(NCc1ccc(CNC(=O)C2c3ccccc3C(=O)N2Cc2ccccc2-c2ccccc2)cc1)C(F)F (stereo not shown)", "log10(IC50)": 3.38}
{"compound": "CC(C)(c1ccccc1)N1C(=O)c2ccccc2C1C(=O)NCc1ccccc1 (stereo not shown)", "log10(IC50)": 3.23}
{"compound": "Cc1c(O)ccc2c1C(=O)N(Cc1ccccc1-c1ccc(Cl)c(Cl)c1)C2C(=O)NC(C)(C)C (stereo not shown)", "log10(IC50)": 2.86}

Value of measured log10(IC50) for the entry CC(C)(C)NC(=O)C1c2ccccc2C(=O)N1Cc1cc(F)ccc1-c1ccccc1 (stereo not shown) : 3.72

Value of measured log10(IC50) for the entry O=C(NCCCC(F)(F)F)C1c2cc(Cl)ccc2C(=O)N1Cc1ccccc1-c1ccccc1 (stereo not shown) : 2.79

Value of measured log10(IC50) for the entry CC(C)(CO)CN1C(=O)c2ccc(Cl)cc2C1C(=O)NCc1cccc(Cl)c1 (stereo not shown) : 3.32

Value of measured log10(IC50) for the entry CC(C)(C)NC(=O)C1c2ccccc2C(=O)N1Cc1ccccc1C(F)(F)F (stereo not shown) : 3.28

Value of measured log10(IC50) for the entry O=C(NCc1ccccc1)C1c2cc(Cl)ccc2C(=O)N1Cc1ccccc1-c1ccccc1 (stereo not shown) : 2.62

---

Reported values of pIC50 for individual entries
experimentalTarget: human Kv1.5 channel (Homo sapiens, UniProt P22460)
Sequence (P22460 whole entry): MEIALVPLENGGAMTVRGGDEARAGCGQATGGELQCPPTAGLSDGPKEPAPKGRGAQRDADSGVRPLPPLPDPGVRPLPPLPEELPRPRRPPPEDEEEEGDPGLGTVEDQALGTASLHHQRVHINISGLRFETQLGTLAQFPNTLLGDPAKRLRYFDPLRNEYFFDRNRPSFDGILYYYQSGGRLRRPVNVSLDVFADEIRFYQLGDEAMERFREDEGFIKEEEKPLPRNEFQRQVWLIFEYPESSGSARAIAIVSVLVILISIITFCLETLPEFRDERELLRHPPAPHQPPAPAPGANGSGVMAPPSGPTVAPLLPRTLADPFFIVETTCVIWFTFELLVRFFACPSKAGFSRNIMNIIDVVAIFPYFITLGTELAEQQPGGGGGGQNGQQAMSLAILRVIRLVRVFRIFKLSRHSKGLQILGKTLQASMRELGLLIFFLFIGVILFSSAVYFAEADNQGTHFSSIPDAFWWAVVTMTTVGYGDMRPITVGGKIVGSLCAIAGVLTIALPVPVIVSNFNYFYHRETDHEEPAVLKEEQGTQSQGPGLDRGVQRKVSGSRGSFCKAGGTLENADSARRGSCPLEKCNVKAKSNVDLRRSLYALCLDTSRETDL
methodNotes: Test A: Rb+ efflux assay
protocolConditions: CHO cells stably transfected with cDNA for human Kv1.5
pIC50 is a log-scale quantity: -log10 of the concentration expressed in molar.

Worked set:
{"compound": "C[C@H](c1ccccc1)N1C(=O)c2ccc(Cl)cc2C1C(=O)NCCCC(F)(F)F (stereo partly shown)", "pIC50": 5.70}
{"compound": "CC(CN1C(=O)c2ccccc2C1C(=O)NCc1ccc2c(c1)OCO2)c1ccc(Cl)cc1 (stereo not shown)", "pIC50": 6.21}
{"compound": "CCCNC(=O)C1c2ccccc2C(=O)N1CC(C)c1ccc(Cl)cc1 (stereo not shown)", "pIC50": 5.89}
{"compound": "CCN(Cc1ccccc1)C(=O)C1c2ccccc2C(=O)N1CCc1ccc(Cl)cc1 (stereo not shown)", "pIC50": 6.03}
{"compound": "CC(C)(C)NC(=O)C1c2cc(F)ccc2C(=O)N1Cc1ccccc1-c1ccccc1 (stereo not shown)", "pIC50": 5.17}
{"compound": "CCCCNC(=O)C1c2c(F)cccc2C(=O)N1CC(C)c1ccc(Cl)cc1 (stereo not shown)", "pIC50": 5.89}

Value of measured pIC50 for the entry O=C(NCc1ccc(C(F)(F)F)nc1)C1c2cc(Cl)ccc2C(=O)N1Cc1ccccc1-c1ccccc1 (stereo not shown) : 5.82

Value of measured pIC50 for the entry CC(C)(C)NC(=O)C1c2ccccc2C(=O)N1Cc1cc(F)ccc1-c1ccc(F)cc1 (stereo not shown) : 5.25

Value of measured pIC50 for the entry CC(CN1C(=O)c2ccccc2C1C(=O)NCc1ccccc1)c1ccc(Cl)cc1 (stereo not shown) : 6.29

Value of measured pIC50 for the entry CC(C)(CO)CN1C(=O)c2ccc(F)cc2C1C(=O)NCc1cccc(Cl)c1 (stereo not shown) : 6.47

Value of measured pIC50 for the entry CC(CN1C(=O)c2cc(Cl)c(Cl)cc2C1C(=O)NC(C)(C)C)c1ccc(Cl)cc1 (stereo not shown) : 5.74

Value of measured pIC50 for the entry CC(CN1C(=O)c2ccccc2C1C(=O)NCc1ccc(N(C)C)cc1)c1ccc(Cl)cc1 (stereo not shown) : 5.74

Value of measured pIC50 for the entry CC(C)(C)NC(=O)C1c2ccccc2C(=O)N1Cc1ccccc1-c1ccc(F)c(F)c1 (single isomer, unassigned) : 5.26

Value of measured pIC50 for the entry O=C(NCc1ccccc1)C1c2cc(F)ccc2C(=O)N1Cc1ccccc1C(F)(F)F (stereo not shown) : 5.85

Value of measured pIC50 for the entry CCCNC(=O)C1c2cc(F)ccc2C(=O)N1CC(C)c1ccc(Cl)cc1 (stereo not shown) : 5.64

Value of measured pIC50 for the entry O=C(NCc1ccccc1)C1c2ccccc2C(=O)N1Cc1ccccc1Br (stereo not shown) : 5.60

Value of measured pIC50 for the entry CC(CN1C(=O)c2ccc(Cl)cc2C1C(=O)NCc1ccc(S(C)(=O)=O)cc1)c1ccc(Cl)cc1 (stereo not shown) : 5.55

Value of measured pIC50 for the entry C[C@H](c1ccccc1)N1C(=O)c2ccc(Cl)cc2C1C(=O)NCc1ccccc1 (stereo partly shown) : 6.26

Value of measured pIC50 for the entry CC(CN1C(=O)c2ccc(Cl)cc2C1C(=O)NCCCC(F)(F)F)c1ccc(Cl)cc1 (stereo not shown) : 6.34
